Assay: Stability in human serum after 120 mins
Assay type: ADME, cell-free
Settings: read-out: Stability
Numbered stars: 1 amine (or outer) side, 2 acyl side, 3 side chain; on linkers, the order of the positions; unused ones are H or OH. Square brackets hold non-standard residues; d marks the D form. Peptide text beside a SMILES is read from it. X1 = CC(C)C[C@H](N[*:1])P(=O)(O)C[C@@H](C)C(=O)[*:2]

MOLECULE | UNIT_INFO | remaining at 2 h
CC(C)C[C@H](NC(=O)[C@@H](N)CCC(=O)O)C(=O)N[C@@H](CC(=O)O)C(=O)N[C@@H](CC(C)C)P(=O)(O)C[C@@H](C)C(=O)N[C@H](C(=O)N[C@@H](CCC(=O)O)C(=O)N[C@@H](Cc1ccccc1)C(=O)O)C(C)C (H-ELD[X1]VEF-OH) | % | 20
